FYI, the data here is from ChEMBL document CHEMBL1201862.

System: SNB-78
Test: NCI tumour cell line growth inhibition, 48 h
Active and inactive are the calls of the source. Cut-off read from the data, not from the text of the source: active = GI50 up to about 1.1 µM and inactive = higher.
Give your call using only these classes: active, inactive

Sample answers from the record:
INSERT INTO assay_data (molecule, assignedclass) VALUES
  ('CC1(C)C(=O)C(C)(C)C1=NN', 'inactive'),
  ('FC(F)(F)c1ccc(/C=N/C23CC4CC(CC(C4)C2)C3)cc1', 'inactive'),
  ('O=C1C2C3CC4C5C3C1C5C1(SCCS1)C42 (stereo unspecified)', 'inactive'),
  ('Cc1cc2nc3c(C(OC4OC(CO)C(O)C(O)C4O)C(O)CO)nn(-c4ccccc4)c3nc2cc1C (stereo unspecified)', 'inactive'),
  ('CCCCCCCCCCCCCCCc1nnc(SCC(=O)O)[nH]1', 'inactive');

Recorded call for C=C1C(C)C2C(Cc3ccccc3)NC(=O)C23C(OC(C)=O)C=CC(C)(O)C(=O)C(C)C/C=C/C3C1O (stereo unspecified) ? active

Recorded call for CC(C)CC(NC(=O)c1cccc(O)c1O)C(=O)NCc1cc(CNC(=O)C(CC(C)C)NC(=O)c2cccc(O)c2O)cc(CNC(=O)C(CC(C)C)NC(=O)c2cccc(O)c2O)c1 (stereo unspecified) ? inactive

---

Tested on: SK-MEL-28
Experiment: NCI tumour cell line growth inhibition, 48 h
The source made the active and inactive calls. No stated cut-off is given here; in the data, active = GI50 up to about 1.1 µM and inactive = higher.
Give your call using only these classes: YES = active, NO = inactive

INSERT INTO assay_data (molecule, assignedclass) VALUES
  ('COc1cc(Br)c(CC2=NCCc3cc(OC)c(OC)cc32)cc1OC', 'NO'),
  ('COc1ccc(CN(Cc2ccc(OC)cc2)C(=O)CC2(O)C=CCC2)cc1 (stereo not given)', 'NO'),
  ('CC(=O)NNc1nc(C)c(C(=O)NNC(=O)C(=O)Nc2ccccc2C#N)s1', 'NO');

Recorded call for CS(=O)(=O)Nc1ccc(Nc2c3ccccc3nc3ccccc23)cc1 ? NO

Recorded call for CC(=O)NS(=O)(=O)c1ccc(NCc2cccc3c(=O)c4ccc(Cl)cc4oc23)cc1 ? NO

Recorded call for O=C(Nc1ccccc1)c1cc(S(=O)(=O)N2CCNC2=O)c(S)cc1Cl ? NO

Recorded call for CCN1C/C(=C\c2cc(OC)c(OC)c(OC)c2)C2=NN(c3ccccc3)C(c3cc(OC)c(OC)c(OC)c3)C2C1 (stereo not given) ? YES

Recorded call for CCCC(OCC)(OCC)OCC ? NO

Recorded call for COc1ccc(-c2cc(-c3cc(C)ccc3O)nc(O)n2)cc1 ? NO

Recorded call for COc1ccc2c(c1OC)C[C@@H]1c3c(cc4c(c3-2)OCO4)CCN1C ? NO

---

System: M14
Experiment: NCI tumour cell line growth inhibition, 48 h
Active and inactive are the calls of the source. Rule as the data show it: active = GI50 up to about 1.1 µM and inactive = higher.
quantityKind: GI50

INSERT INTO assay_data (compound, val) VALUES
  ('CCOCNC(=O)N(COCC)COCC', '> 100 µM (inactive)');

Batch: GI50 for all items listed.
1. C=C1C(C)C2C(Cc3ccccc3)NC(=O)C23C(OC(C)=O)C=CC(C)(O)C(=O)C(C)C/C=C/C3C1O (stereo unspecified)
2. COc1cc2ccc3c4cc(OC)c(OC)cc4c[n+](C)c3c2cc1O

1: 7.24 µM (inactive); 2: > 100 µM (inactive)

Batch: GI50 for all items listed.
1. CC1(O)CCC2(C)C(=O)C1(C)CCC21OCCO1 (stereo unspecified)
2. CC(=O)OC1CC2C(C)(C)C(=O)C=C[C@]2(C)C2CCC3(C)C(c4ccoc4)C(=O)[C@H]4O[C@]43[C@]12C (stereo partly specified)
3. CCN(CC)c1ccc2cc(C(=O)NCc3ccccc3)c(=N)oc2c1
4. Fc1ccc2c(c1)nc1n2C(c2c(F)cccc2F)SC1 (stereo unspecified)
5. CC1=Nc2c(ccc3c2C(=O)c2ccccc2C3=O)NC(c2cccc3c2CCC3)C1 (stereo unspecified)
6. Cc1ccc(C(=O)Nc2ccc(S(=O)(=O)O)c3cc(S(=O)(=O)O)cc(S(=O)(=O)O)c23)cc1NC(=O)c1cccc(N)c1

["> 100 µM (inactive)", "26.7 µM (inactive)", "11.1 µM (inactive)", "49.8 µM (inactive)", "> 92 µM (inactive)", "> 100 µM (inactive)"]

Batch: GI50 for all items listed.
1. CCNC1=C(NC(=O)CCl)C(=O)c2ccccc2C1=O
2. O=c1cc(O)cc2n1CCC2

20.9 µM (inactive)
> 100 µM (inactive)

---

System: SN12C
Assay: NCI tumour cell line growth inhibition, 48 h
Calls of active or inactive are those of the source. No stated cut-off is given here; in the data, active = GI50 up to about 1.1 µM and inactive = higher.
quantityKind: GI50

Worked cases, GI50 given:
INSERT INTO assay_data (compound, val) VALUES
  ('CCC1OC(=O)CC(O)C(C)C(OC2OC(C)CC(N(C)C)C2O)C(CC=O)CC(C)C(=O)/C=C/C2(C)OC2C1C (centres undefined)', '18 µM (inactive)'),
  ('COC(=O)Cc1c([C@@]2(C)CCCC(C)(C)C2)ccc2c1C(=O)OC2', '10.1 µM (inactive)'),
  ('NC(=O)c1c[se]c(C2OC(COP(=O)(O)CP(=O)(O)OCC3OC(n4cnc5c(N)ncnc54)C(O)C3O)C(O)C2O)n1 (centres undefined)', '> 100 µM (inactive)');

Annotate the compound O=C(Nc1nc2ccccc2n1Cc1ccc(Cl)cc1)NC12CC3CC(CC(C3)C1)C2 with its measured GI50. 28.4 µM (inactive)

---

Test system: OVCAR-5
Assay: NCI tumour cell line growth inhibition, 48 h
The source made the active and inactive calls. Rule as the data show it: active = GI50 up to about 1.1 µM and inactive = higher.
For each entry below, report its GI50 value.

Worked cases, GI50 given:
INSERT INTO measurements (compound, val) VALUES
  ('COc1cc(/C=C/C(=O)c2ccc(O)c(OC)c2)ccc1O', '24.8 µM (inactive)'),
  ('CC(C(O)c1ccccc1)N(C)/N=N/c1nc2c([nH]1)c(=O)n(C)c(=O)n2C (stereo not given)', '> 100 µM (inactive)'),
  ('COc1cc(-c2cc(OC)c(OC)c3ccc(Br)cc23)c2cc(Br)ccc2c1OC', '15.9 µM (inactive)'),
  ('O=C1NC(=O)/C(=C/c2ccc(S(=O)(=O)N/N=C/c3ccc(Cl)cc3)cc2)N1', '> 100 µM (inactive)'),
  ('O=C1Cc2c([nH]c3ccc(Br)cc23)-c2cc(O)c(O)cc2N1', '> 100 µM (inactive)');

Batch: GI50 for all items listed.
1. O=C1C(Cl)=C(Sc2nnc3c4ccccc4c4ccccc4c3n2)C(=O)c2ccccc21
2. Cn1c(=O)nc2n(-c3ccc(Cl)cc3)c3ccc(Cl)cc3nc-2c1=O
3. COc1cccc(CCNc2c(C#N)c3nc4ccccc4n3c3ccccc23)c1
4. N/N=C(/C=C1\C(=O)Nc2ccccc21)c1ccccc1
5. Cc1nc2ccccc2c(=O)n1Nc1ccc(C(=O)O)cc1

["23.2 µM (inactive)", "16.1 µM (inactive)", "7 µM (inactive)", "50.9 µM (inactive)", "> 100 µM (inactive)"]

---

System: SF-295
Assay: NCI tumour cell line growth inhibition, 48 h
The source made the active and inactive calls. Cut-off read from the data, not from the text of the source: active = GI50 up to about 1.1 µM and inactive = higher. Where a SMILES comes first, the peptide text is derived from it. [ ]: non-standard residue; d: D form. The star is where a group is joined. ξ: configuration not given here. ξD = NC(CC(=O)O)C(=O)O; Boc = CC(C)(C)OC(=O)*; Aib = CC(C)(N)C(=O)O; OtBu = CC(C)(C)O*
quantityKind: GI50

INSERT INTO assay_data (molecule, val) VALUES
  ('C=C1C(=O)O[C@H]2/C=C(/C)C3=CC(=O)[C@@](C)(C[C@@H](OC(=O)/C(C)=C\C)C12)O3 (some centres undefined)', '12 µM (inactive)');

Batch: GI50 for all items listed.
1. CN1NC(c2ccc(Cl)cc2)=C(C#N)C(=O)CC1c1ccccc1 (centres undefined)
2. COc1cc2c(cc1O)C=NCC2
3. CCOC(=O)c1nc2ccccc2nc1NCc1ccc(OC)cc1

1: > 100 µM (inactive); 2: > 100 µM (inactive); 3: > 100 µM (inactive)

Batch: GI50 for all items listed.
1. CCOC(=O)C1=CC(C)(C(=O)OCC)Nc2c(nc(SC)[nH]c2=O)N1 (centres undefined)
2. Cc1ccc(N2C(=O)/C(=C3\SC(C(N)=O)=C(N)N3c3ccccc3)SC2=S)cc1
3. Oc1nc(S)nc2c1CN(CCCN1CCOCC1)CN2
4. O=C(O)[C@@H]1C[C@@H](O)CN1

["> 10 µM (inactive)", "24.9 µM (inactive)", "28.2 µM (inactive)", "> 100 µM (inactive)"]

Batch: GI50 for all items listed.
1. COc1cc(O)c2c(=O)c(OC)c(-c3ccc4c(c3)OCO4)oc2c1OC
2. NC(=O)CCC(NCc1c2ccccc2[n+]([O-])c2ccccc12)C(=O)O (centres undefined)
3. CC1=COC(=O)c2ccccc2N1
4. CCCc1nnc2sc(COc3cc(Cl)c(OCc4nn5c(CCC)nnc5s4)cc3Cl)nn12
5. CC(C(O)c1ccccc1)N(C)/N=N/c1nc2c([nH]1)c(=O)n(C)c(=O)n2C (centres undefined)
6. CC(Cc1ccccc1)Nc1ncnc2c1ncn2C1OC(CO)CC1O (centres undefined)
7. CCN(CC)CCNC(=O)c1ccccc1NC(=O)C(=O)Nc1ccccc1C(=O)NCCN(CC)CC

29 µM (inactive)
> 100 µM (inactive)
> 100 µM (inactive)
28.6 µM (inactive)
> 100 µM (inactive)
1.93 µM (inactive)
42.5 µM (inactive)

Batch: GI50 for all items listed.
1. CS(=O)(=O)Nc1ccc(Nc2c3ccccc3nc3ccccc23)cc1
2. COc1cc2c(cc1OCCN1C(=O)c3cccc4cccc(c34)C1=O)N=C[C@@H]1CCCN1C2=O
3. Cc1nn(C(=O)c2ccncc2)c2c1C(c1ccc([N+](=O)[O-])cc1)SC(=N)N2 (centres undefined)

["1.66 µM (inactive)", "13.7 µM (inactive)", "> 100 µM (inactive)"]

Batch: GI50 for all items listed.
1. Cc1c2cnccc2c(C)c2c1c1ccccc1n2CC1CO1 (centres undefined)
2. COC(=O)c1ccccc1/C=C1\Cc2ccc(C)c(C)c2C1=O
3. COC(=O)c1cc(C)ccc1/C=C1\Cc2c(C)cc(C)cc2C1=O
4. COC(=O)c1ccccc1/C=C1/Cc2ccccc2C1=O
5. C=C1c2nc3ccccc3n2C=C(c2ccccc2)N1c1ccc(C)cc1
6. NC(Cc1ccc(OCc2ccccc2)cn1)C(=O)OCc1ccccc1 (centres undefined)
7. CCOC(=O)C(=O)Nc1cccc(Cl)c1C
8. CCOC(=O)C(NC(=O)C(CCCCNP(=O)(OCC)OCC)NC(=O)C(C)NC(C)=O)C(C)C (centres undefined)

1.33 µM (inactive)
77.8 µM (inactive)
3.61 µM (inactive)
44.1 µM (inactive)
> 100 µM (inactive)
> 100 µM (inactive)
> 100 µM (inactive)
> 100 µM (inactive)

Batch: GI50 for all items listed.
1. C=C(C)C1Cc2cc(C(C)=O)ccc2O1 (centres undefined)
2. Cn1c(=O)nc2n(-c3ccc(Cl)cc3)c3ccc(Cl)cc3nc-2c1=O
3. Nc1cccc(S(=O)(=O)NCC(=O)O)c1
4. O=C1N[C@H]2c3c(Cl)sc(Cl)c3C(=O)[C@H]2O1
5. CCCCCCCCCCCCCC/C(C(=O)O)=C(\C)C(=O)O
6. O=C1C(Cl)=C(Sc2nnc3c4ccccc4c4ccccc4c3n2)C(=O)c2ccccc21

["> 100 µM (inactive)", "4.88 µM (inactive)", "> 100 µM (inactive)", "18.8 µM (inactive)", "> 100 µM (inactive)", "10.8 µM (inactive)"]

Batch: GI50 for all items listed.
1. CC1=[N+](C)CCCN1C
2. O=[N+]([O-])c1cccc(/N=N/c2c(O)ccc3ccccc23)c1
3. COC(=O)Nc1nc2cc(NS(=O)(=O)c3cccs3)ccc2[nH]1
4. N#C/N=C(\NCCc1c[nH]c2ccccc12)NCc1ccccc1
5. COC(=O)C(C)(C)NC(=O)C(C)(C)NC(=O)C(CC(=O)OC(C)(C)C)NC(=O)OC(C)(C)C (centres undefined) (Boc-[ξD](OtBu)-[Aib]-[Aib]-OMe)
6. COc1ccc(/C=C/C(=O)c2ccc(OC(=O)/C=C/c3ccccc3)cc2)cc1

> 100 µM (inactive)
31 µM (inactive)
24.9 µM (inactive)
36 µM (inactive)
> 100 µM (inactive)
25.1 µM (inactive)

Batch: GI50 for all items listed.
1. Nc1nonc1-c1noc(-c2nonc2N)[n+]1[O-]
2. Clc1cc(Cc2cc(Cl)c(Cl)c3c2OCOC3)c2c(c1Cl)COCO2
3. CC(C)(C)OC(=O)NC(Cc1ccccc1)C(=O)N1CCCC1C(N)=O (stereo not drawn) (Boc-Phe-Pro-NH2; configuration not given here)
4. O=C1c2ccccc2C(=O)N1NC1=NCCN1
5. O=C(N/N=C/c1cccc(O)c1O)N/N=C/c1cccc(O)c1O

["> 100 µM (inactive)", "26.2 µM (inactive)", "> 100 µM (inactive)", "> 100 µM (inactive)", "17.9 µM (inactive)"]

Annotate the molecule CC(C)C(=O)/C=C/c1ccc(Cl)cc1 with its measured GI50. 13.5 µM (inactive)
